Test system: DENV-4 strain EDEN
experimentNotes: Tetravalent RT-qPCR assay Protocol A, serotype 4 EDEN
Assay type: cell-based
details: Dengue virus, DENV4, 72 h, RT-qPCR serotype 4 EDEN, Vero cells, day 3
parameter: EC50 (nM)
Give the number; nM is assumed, so skip it.

Any idea what EC50 was measured for COc1cc(NC(C(=O)c2c[nH]c3cc(Cl)ccc23)c2ccc(F)cc2OC)cc(OCCO)c1 (single isomer, unassigned) ? 16

Now the compound COc1cc(NC(C(=O)c2c[nH]c3cc(F)ccc23)c2ccc(F)cc2OC)cc(OCCO)c1 (single isomer, unassigned) 12

Further, for COc1cc(NC(C(=O)c2c[nH]c3cc(F)c(F)cc23)c2ccc(F)cc2OC)cc(OCCO)c1 (single isomer, unassigned) [Compound 10B] ? 20

Also check COc1cc(NC(C(=O)c2c[nH]c3c(C)c(F)ccc23)c2ccc(F)cc2OC)cc(OCCO)c1 (single isomer, unassigned) 11
